- experimental.target: Recombinant human CETP (Homo sapiens, UniProt P11597)
- Sequence (P11597 18-493): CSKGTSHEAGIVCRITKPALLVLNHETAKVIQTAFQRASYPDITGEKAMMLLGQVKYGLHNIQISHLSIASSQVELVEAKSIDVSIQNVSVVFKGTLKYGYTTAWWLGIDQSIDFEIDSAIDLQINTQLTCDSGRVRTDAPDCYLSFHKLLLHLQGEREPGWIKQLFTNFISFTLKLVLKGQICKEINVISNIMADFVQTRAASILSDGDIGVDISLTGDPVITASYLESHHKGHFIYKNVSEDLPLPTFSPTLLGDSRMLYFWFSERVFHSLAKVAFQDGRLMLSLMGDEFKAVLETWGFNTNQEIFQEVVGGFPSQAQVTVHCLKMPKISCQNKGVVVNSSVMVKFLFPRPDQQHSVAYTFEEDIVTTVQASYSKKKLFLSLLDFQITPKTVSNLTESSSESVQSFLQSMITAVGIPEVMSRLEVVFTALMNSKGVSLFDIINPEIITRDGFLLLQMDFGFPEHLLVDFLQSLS
- experiment.notes: CETP Scintillation Proximity Assay
- measurement.parameters: 3H-cholesteryl ester transfer from human HDL donor to biotin labelled LDL, over night at room temperature; read-out: IC50 values for CETP inhibitory activity
Readings of IC50 for the listed compounds

Would you please look over these solved cases?
{"compound": "CC1OC(c2ccc(C(F)(F)F)cc2)c2c1nc1c(c2C2CCCC2)[C@@H](O)CC(C)(C)C1 (single isomer, unassigned) [Example 1]", "measured.result": "< 2000 nM"}
{"compound": "CC1OC(c2ccc(C(F)(F)F)cc2)c2c1nc1c(c2C2CCCCC2)[C@@H](O)CC(C)(C)C1 (single isomer, unassigned)", "measured.result": "< 1000 nM"}
{"compound": "CC1OC(c2ccc(C(F)(F)F)cc2)c2c1nc1c(c2C2CCCC2)[C@@H](O)CC(C)(C)C1 (single isomer, unassigned) [Diastereomer 4 of Example 1 (2)]", "measured.result": "< 2000 nM"}
{"compound": "CC1OC(c2ccc(C(C)(C)C)cc2)c2c1nc1c(c2C2CCCCC2)[C@@H](O)CC(C)(C)C1 (stereo partly shown)", "measured.result": "< 5000 nM"}
{"compound": "CC1(C)Cc2nc3c(c(C4CCCC4)c2[C@@H](O)C1)[C@H](c1ccc(C(F)(F)F)cc1)OC31CCCC1 (single isomer, unassigned)", "measured.result": "< 1000 nM"}

input: I would be grateful if you could share the reported IC50 for CC1(C)Cc2nc3c(c(C4CCCC4)c2[C@@H](O)C1)C(c1ccc(C(F)(F)F)cc1)OC3 (single isomer, unassigned) [Diastereomer 1 of Example 1 (3)] .
output: < 20000 nM

input: Find the recorded IC50 belonging to CC1(C)Cc2nc3c(c(C4CCCC4)c2[C@@H](O)C1)C(c1ccc(C(F)(F)F)cc1)OC3(C)C (single isomer, unassigned) [Example 1 (5)] and report it.
output: < 1000 nM
